Every entry's value here was drawn from ChEMBL document CHEMBL4303097.

We begin with a simple list: items and their reported pEC50.
# Test system: SARS-CoV-2
# assay.method.text: Antiviral efficacy against SARS-CoV-2 (strain BavPat1) in Vero E6 cells assessed by inhibition of viral RNA replication measured by RT-PCR after 2 days
# Assay type: functional, organism-based, Chlorocebus sabaeus
# condition.parameters: Severe acute respiratory syndrome coronavirus 2, Vero C1008, 48 h
pEC50: −log10 of the molar value. Where a name gives a salt, the structure may show the parent alone.
parameter.measured: pEC50

{"columns": ["molecule", "reported.measurement"],
 "data": [
  ["COc1ccccc1OCC(O)CN1CCN(CC(=O)Nc2c(C)cccc2C)CC1 (stereo not drawn)", "< 4.40"],
  ["CCCc1nc(C(C)(C)O)c(C(=O)OCc2oc(=O)oc2C)n1Cc1ccc(-c2ccccc2-c2nnn[nH]2)cc1", "< 4.40"],
  ["COC(c1ccccc1)(c1ccccc1)C(Oc1nc(C)cc(C)n1)C(=O)O (stereo not drawn)", "< 4.40"],
  ["CC(C)(C)NC[C@H](O)c1ccc(O)c(CO)c1 [LEVALBUTEROL HYDROCHLORIDE]", "< 4.40"],
  ["CC(C)CN(C[C@@H](O)[C@H](Cc1ccccc1)NC(=O)O[C@H]1CO[C@H]2OCC[C@H]21)S(=O)(=O)c1ccc(N)cc1", "< 4.40"],
  ["COc1ncnc(NS(=O)(=O)c2ccc(N)cc2)c1OC", 4.45],
  ["C=CCOc1ccccc1OCC(O)CNC(C)C (stereo not drawn) [OXPRENOLOL HYDROCHLORIDE]", 4.69],
  ["OCCN1CCN(CCCN2c3ccccc3C=Cc3ccccc32)CC1 [OPIPRAMOL HYDROCHLORIDE]", 5.30]
]}
